Assay Target: Somatostatin receptor 2 (SSTR2) (human), P30874
Sequence (P30874 whole entry): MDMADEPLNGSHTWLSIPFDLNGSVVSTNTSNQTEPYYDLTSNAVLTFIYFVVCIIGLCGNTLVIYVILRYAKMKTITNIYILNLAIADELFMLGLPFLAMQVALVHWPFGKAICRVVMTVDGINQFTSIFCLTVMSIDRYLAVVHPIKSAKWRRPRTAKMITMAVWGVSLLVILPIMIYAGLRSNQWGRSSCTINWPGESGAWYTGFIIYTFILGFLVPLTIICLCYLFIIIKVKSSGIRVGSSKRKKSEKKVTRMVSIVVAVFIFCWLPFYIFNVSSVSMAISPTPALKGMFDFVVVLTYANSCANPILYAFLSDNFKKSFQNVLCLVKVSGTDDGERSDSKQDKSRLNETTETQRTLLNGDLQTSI
Experimental Parameters: L-mesityl alanine (2,4,6-trimethylphenylalanine, Msa) in place of Phe6; D-Trp at position 7; disulfide bridge between the two cysteines
Measured Endpoint: IC50 (pM)

- PCKNFFWKTFTSCK [Cortistatin analogue 2]: 420

Numbers sourced from paper PMC7994712.
